B1: library; numbered along this chain (parent)
chain: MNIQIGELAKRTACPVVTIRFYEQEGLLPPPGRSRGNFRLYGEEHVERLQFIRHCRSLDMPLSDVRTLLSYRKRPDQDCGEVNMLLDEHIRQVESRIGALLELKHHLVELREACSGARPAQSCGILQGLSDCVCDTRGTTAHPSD

Variants of: B1
Test: sfGFP reporter fluorescence (15 h) (µM FITC); higher = higher leak
Details: library round: Round 0; ligand: none
readout-kind: sfGFP reporter fluorescence
Write no unit; give the number alone.

Study these solved cases before continuing.
sequence-chain	sfGFP reporter fluorescence
MNIQIGELAKRTACPVVTIRFYEQEGLLPPPGRSRGNFRLYGEEHVERLQFIRHCRSLDLNLSKVRTLLSYRKRPDQDCGEVNMLLDEHIRQVESRIGALLELVHHLVELREACSGARPAQSCGILQILSDCVCDTRGTTAHPSD	0.345
MNIQIGELAKRTACPVVTIRFYEQEGLLPPPGRSRGNFRLYGEEHVERLQFIRHCRSLDMPLSDVRTLLSYRKRPDQDCGEVNMLLDEHIRQVESRIGALLELSHHLVELREACSGARPAQSCGILQGLSDCVCDTRGTTAHPSD	0.0612
MNIQIGELAKRTACPVVTIRFYEQEGLLPPPGRSRGNFRLYGEEHVERLQFIRHCRSLDMPLSLVRTLLSYRKRPDQDCGEVNMLLDEHIRQVESRIGALLELKHHLVELREACSGARPAQSCGILQGLSDCVCDTRGTTAHPSD	2.28
MNIQIGELAKRTACPVVTIRFYEQEGLLPPPGRSRGNFRLYGEEHVERLQFIRHCRSLDMPLSDVRTLLSYRKRPDQDCGEVNMLLDEHIRQVESRIGALLELKHHLVELRVACSGARPAQSCGILQGLSDCVCDTRGTTAHPSD	0.0572

Please turn your attention to the following entry.
I am curious: what sfGFP reporter fluorescence value has been reported for `MNIQIGELAKRTACPVVTIRFYEQEGLLPPPGRSRGNFRLYGEEHVERLQFIRHCRSLDMPLSDVRTLLSYRKRPDQDCGEVNMLLDEHIRQVESRIGALLELKHHLVELREACSGARPAQSCGSLQGLSDCVCDTRGTTAHPSD` ?
0.0597
